Source: PubChem BioAssay AID651572

- TARGET_UNDER_TEST: ADP-ribosylation factor GTPase-activating protein 1 (Rattus norvegicus) (UniProt Q62848)
- Sequence (Q62848 1-136 limits assumed): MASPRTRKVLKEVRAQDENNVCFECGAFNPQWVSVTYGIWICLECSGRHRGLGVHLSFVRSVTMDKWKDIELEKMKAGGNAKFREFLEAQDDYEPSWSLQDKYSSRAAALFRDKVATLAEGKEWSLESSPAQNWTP
- PROTOCOL_TEXT: blockers of ARFGAP1-stimulated ARF1 GTP hydrolysis – biochemical, fluorescence polarization, GDP tracer, primary screen (AID 651572);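 note: 0% = DMSO wells with enzyme and 100% = wells lacking Arfgap1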
- ASSAY_CONDITIONS: GDP FP detection, at 16.5 µM
Among all 360,000 compounds or so, about 950 (0.26%) were called active.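 Rule for the calls: active = inhibition above a per-plate limit, mean inhibition of low control wells plus 3 SD (cut at about 25% in these data); inactive = the rest.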 The sample holds actives, similar compounds and a random draw of the others, so the mix is not that of the screen.
Assign a class; possible classes are 1.0 for active, 0.0 for inactive

Please let me know the test result on file for COC(=O)C1=C(C)N(Cc2cccc(C(F)(F)F)c2)C(=NCc2ccccc2)NC1c1ccc(Cl)cc1 (centres undefined) .
0.0

Same lookup for COc1cccc(CNc2nc(C(F)(F)F)nc3ccccc23)c1 , please.
1.0

Same lookup for COc1cccc(CNc2nc(NCc3cccs3)nc3ccsc23)c1 , please.
0.0

Same lookup for CCOc1ccc(C(=O)Nc2cccc(SC)c2)cc1 , please.
0.0
